System: 695427-040-R-J1-PDC complex spheroid viability;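 note: viability read after seven days of drug exposure; 100% = DMSO vehicle control viability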
Experiment: Anticancer human tumor 695427-040-R-J1-PDC patient-derived colon adenocarcinoma cell line growth inhibition [RAS]
Conditions: second compound 0.0316 µM; first compound 0.03 µM; hits give low values
OBSERVATION TYPE: viability, T/C

Check out these entries, answers already filled in.
(Q) # query: viability, T/C | item CC1(C)CCC(Nc2ncc(C(F)(F)F)c(-c3c[nH]c4c(P(C)(C)=O)c(C#N)ccc34)n2)CN1 (centres undefined) + C#Cc1c(F)ccc2cc(O)cc(-c3ncc4c(N5CC6CCC(C5)N6)nc(OCC56CCCN5CC(F)C6)nc4c3F)c12 | system: 695427-040-R-J1-PDC complex spheroid viability;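 note: viability read after seven days of drug exposure; 100% = DMSO vehicle control viability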
(A) 79%

(Q) Ok, now CCc1c2c(nc3ccc(O)cc13)-c1cc3c(c(=O)n1C2)COC(=O)[C@]3(O)CC + C=CC(=O)N1CCN(c2nc(OCC3CCCN3C)nc3c(F)c(-c4nc(N)cc(C)c4C(F)(F)F)c(Cl)cc23)C(C)C1
(A) 75.8%

(Q) Ok, now CCc1c2c(nc3ccc(O)cc13)-c1cc3c(c(=O)n1C2)COC(=O)[C@]3(O)CC + C#Cc1c(F)ccc2cc(O)cc(-c3ncc4c(N5CC6CCC(C5)N6)nc(OCC56CCCN5CC(F)C6)nc4c3F)c12
(A) 76%

Okay, now this compound:
(Q) # query: viability, T/C | item CC1(C)CCC(Nc2ncc(C(F)(F)F)c(-c3c[nH]c4c(P(C)(C)=O)c(C#N)ccc34)n2)CN1 (centres undefined) + C=CC(=O)N1CCN(c2nc(OCC3CCCN3C)nc3c(F)c(-c4nc(N)cc(C)c4C(F)(F)F)c(Cl)cc23)C(C)C1 | system: 695427-040-R-J1-PDC complex spheroid viability;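 note: viability read after seven days of drug exposure; 100% = DMSO vehicle control viability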
(A) 75.7%
